Catalogue of EC50 values
measurement_target: MK2 (Homo sapiens (Human))
Sequence (P49137 whole entry): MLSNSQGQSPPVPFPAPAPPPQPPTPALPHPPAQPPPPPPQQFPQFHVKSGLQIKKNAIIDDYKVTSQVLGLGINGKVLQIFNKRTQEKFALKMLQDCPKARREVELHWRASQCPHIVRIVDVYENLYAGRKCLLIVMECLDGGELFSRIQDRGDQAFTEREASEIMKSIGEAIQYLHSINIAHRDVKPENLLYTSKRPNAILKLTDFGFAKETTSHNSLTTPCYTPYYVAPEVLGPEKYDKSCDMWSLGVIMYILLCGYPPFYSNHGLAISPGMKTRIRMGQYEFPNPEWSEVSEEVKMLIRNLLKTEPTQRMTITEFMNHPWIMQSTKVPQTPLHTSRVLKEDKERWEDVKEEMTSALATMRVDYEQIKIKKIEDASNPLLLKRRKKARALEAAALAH
assay_details: MK2 cellular assay (Hsp27 phosphorylation in Thp-1 cells)
test_conditions: differentiated Thp-1 cells, compound 1 hour, 50 ng/ml LPS 15 minutes, phosphorylation of Hsp27; read-out: MK2EC50
Protocol: Compounds were assayed in Thp-1 human acute monocytic leukemia cells to measure inhibition of MK2 activity. Thp-1 were grown in suspension in T225 flasks. Two days prior to assay, Thp-1 cells were spun down, counted and plated at 1×10^6 cells per well of a 12 well plate in complete media containing 10 ng/ml PMA (phorbol myristate acetate) to differentiate the cells. On day of assay, cells were washed with complete media, and compound was added to differentiated Thp-1 cells for 1 hour. […]
test_readout: EC50

INSERT INTO assay_data (compound, measurement_target, test_readout, recorded_value) VALUES
  ('C=CC(=O)Nc1cccc(NC(=O)c2ccc3sc4c(c3c2)NC[C@@H](C)NC4=O)c1', 'MK2 (Homo sapiens (Human))', 'EC50', '501 to 999 nM'),
  ('C=CC(=O)Nc1cc(-c2ccc3c(ccc4sc5c(c43)NC[C@@H](C)NC5=O)n2)ccc1OC(F)(F)F', 'MK2 (Homo sapiens (Human))', 'EC50', '< 100 nM'),
  ('C=CC(=O)N1CCOc2ccc(-c3cc4c(cn3)CCc3c-4[nH]c4c3C(=O)NC3(CC3)C4)cc21', 'MK2 (Homo sapiens (Human))', 'EC50', '501 to 999 nM'),
  ('C=CC(=O)Nc1cc(-c2ccc3c(ccc4sc5c(c43)NC[C@@H](C)NC5=O)n2)ccc1C', 'MK2 (Homo sapiens (Human))', 'EC50', '< 100 nM'),
  ('C=CC(=O)Nc1cc(-c2ncc3c(n2)-c2[nH]c4c(c2CC3)C(=O)NCC4)cnc1OCCOC', 'MK2 (Homo sapiens (Human))', 'EC50', '101 to 500 nM'),
  ('C=CC(=O)Nc1cc(-c2cc3c(ccc4c5c([nH]c43)CCC5=O)cn2)ccc1N1CCN(C(C)=O)CC1', 'MK2 (Homo sapiens (Human))', 'EC50', '501 to 999 nM'),
  ('C=CC(=O)NC1CCCC1NC(=O)c1ccc2cc3n(c2c1)C1(CCC1)CNC3=O (racemic)', 'MK2 (Homo sapiens (Human))', 'EC50', '> 1000 nM'),
  ('C=CC(=O)N1CCOc2ccc(-c3nccc(-c4cc5n(c4)CCNC5=O)n3)cc21', 'MK2 (Homo sapiens (Human))', 'EC50', '> 1000 nM'),
  ('C=CC(=O)N1CCc2ccc(NC(=O)c3ccc4cc5n(c4c3)C3(CCC3)CNC5=O)cc21', 'MK2 (Homo sapiens (Human))', 'EC50', '101 to 500 nM'),
  ('C=CC(=O)Nc1cc(-c2ccc3c(ccc4sc5c(c43)NC[C@@H](C)NC5=O)n2)ccc1C1CCN(C)CC1', 'MK2 (Homo sapiens (Human))', 'EC50', '101 to 500 nM'),
  ('C=CC(=O)Nc1cc(-c2cc(-c3cc4c([nH]3)C3(CCCNC3)CNC4=O)ccn2)ccc1OCCOC (stereo not shown)', 'MK2 (Homo sapiens (Human))', 'EC50', '> 1000 nM'),
  ('C=CC(=O)Nc1cc(-c2cc(-c3cc4c([nH]3)C3(CCCNC3)CNC4=O)ccn2)cc(C(F)(F)F)c1 (stereo not shown)', 'MK2 (Homo sapiens (Human))', 'EC50', '> 1000 nM'),
  ('C=CC(=O)Nc1cc(C2CCN(C)CC2)cc2oc(-c3ccc4cc5n(c4c3)C3(CCC3)CNC5=O)nc12', 'MK2 (Homo sapiens (Human))', 'EC50', '< 100 nM'),
  ('C=CS(=O)(=O)N1CCC[C@@H](NC(=O)c2ccc3sc4c(c3c2)NC[C@@H](C)NC4=O)C1', 'MK2 (Homo sapiens (Human))', 'EC50', '101 to 500 nM'),
  ('C=CC(=O)Nc1cc(-c2ccc3c(ccc4sc5c(c43)NC[C@@H](C)NC5=O)n2)cnc1C', 'MK2 (Homo sapiens (Human))', 'EC50', '< 100 nM'),
  ('C=CC(=O)N1CCC[C@H](NC(=O)c2ccc3sc4c(c3c2)NC[C@@H](C)NC4=O)C1', 'MK2 (Homo sapiens (Human))', 'EC50', '101 to 500 nM'),
  ('C=CC(=O)Nc1cc(-c2cc3c(cn2)CCc2c-3[nH]c3c2C(=O)NCC3)ccc1F', 'MK2 (Homo sapiens (Human))', 'EC50', '< 100 nM'),
  ('C=CC(=O)Nc1cc(-c2ccc3c(ccc4sc5c(c43)NC[C@@H](C)NC5=O)n2)ccc1OCCOC', 'MK2 (Homo sapiens (Human))', 'EC50', '< 100 nM'),
  ('C=CC(=O)Nc1cccc2oc(-c3ccc4cc5n(c4c3)C3(CCC3)CNC5=O)nc12', 'MK2 (Homo sapiens (Human))', 'EC50', '101 to 500 nM');
